molecular target: Biotinylated Tau 2N4R (Homo sapiens, UniProt P10636-8, biotin (NHS-biotin conjugates, 5 molar excess; sites not stated)); test: SPR
endpoint-name: binding result

VHH Z70 mutant 12 (S23C + G115E) (VHH) VHH: EVQLQASGGVFVQSGGSLRLCCAASGATSTFDGMGWFRQAPGKEREFVSAISYEQGSYTYYADSVKGRFTISRDNSKNMVYLQMNSLRAEDTATYYCAPAYEGDLYAFDSYGEQGTQVTVSS :: binds
VHH Z70 mutant 3 (R47K) (VHH) VHH: EVQLQASGGVFVQSGGSLRLSCAASGATSTFDGMGWFRQAPGKEKEFVSAISYEQGSYTYYADSVKGRFTISRDNSKNMVYLQMNSLRAEDTATYYCAPAYEGDLYAFDSYGGQGTQVTVSS :: binds
VHH Z70 mutant 15 (R90G + P101S + G114E) (VHH) VHH: EVQLQASGGVFVQSGGSLRLSCAASGATSTFDGMGWFRQAPGKEREFVSAISYEQGSYTYYADSVKGRFTISRDNSKNMVYLQMNSLGAEDTATYYCASAYEGDLYAFDSYEGQGTQVTVSS :: binds
